B1: 2K2A (parent)
chain: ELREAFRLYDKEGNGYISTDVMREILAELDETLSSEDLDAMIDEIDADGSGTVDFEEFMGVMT

Variants of: B1
Assay: folding stability dG (cDNA display proteolysis); higher = more stable
Settings: PBS, room temperature
Mark Condition not met for folding stability dG values under 1 kcal/mol, and Condition met for everything at or above.

Lookup: Please check the record V53G and state if its folding stability dG is at or above 1 kcal/mol.
Found: Condition not met

Lookup: Please check the record D43A and state if its folding stability dG is at or above 1 kcal/mol.
Found: Condition met

Lookup: Please check the record D48I and state if its folding stability dG is at or above 1 kcal/mol.
Found: Condition met

Lookup: Please check the record E24D and state if its folding stability dG is at or above 1 kcal/mol.
Found: Condition met

Lookup: Please check the record D46A and state if its folding stability dG is at or above 1 kcal/mol.
Found: Condition not met

Lookup: Please check the record I45Q and state if its folding stability dG is at or above 1 kcal/mol.
Found: Condition not met

Lookup: Please check the record S50V and state if its folding stability dG is at or above 1 kcal/mol.
Found: Condition met

Lookup: Please check the record G49Y and state if its folding stability dG is at or above 1 kcal/mol.
Found: Condition met

Lookup: Please check the record M22H and state if its folding stability dG is at or above 1 kcal/mol.
Found: Condition not met

Lookup: Please check the record D43C and state if its folding stability dG is at or above 1 kcal/mol.
Found: Condition met

Lookup: Please check the record S18E and state if its folding stability dG is at or above 1 kcal/mol.
Found: Condition not met

Lookup: Please check the record G15E and state if its folding stability dG is at or above 1 kcal/mol.
Found: Condition not met

Lookup: Please check the record L29A and state if its folding stability dG is at or above 1 kcal/mol.
Found: Condition met

Lookup: Please check the record L8H and state if its folding stability dG is at or above 1 kcal/mol.
Found: Condition met

Lookup: Please check the record L29V and state if its folding stability dG is at or above 1 kcal/mol.
Found: Condition met

Lookup: Please check the record S50M and state if its folding stability dG is at or above 1 kcal/mol.
Found: Condition met

Lookup: Please check the record A27M and state if its folding stability dG is at or above 1 kcal/mol.
Found: Condition met

Lookup: Please check the record S50I and state if its folding stability dG is at or above 1 kcal/mol.
Found: Condition met

Lookup: Please check the record I45T and state if its folding stability dG is at or above 1 kcal/mol.
Found: Condition not met

Lookup: Please check the record I45K and state if its folding stability dG is at or above 1 kcal/mol.
Found: Condition not met

Lookup: Please check the record M41F and state if its folding stability dG is at or above 1 kcal/mol.
Found: Condition met

Lookup: Please check the record L38G and state if its folding stability dG is at or above 1 kcal/mol.
Found: Condition not met

Lookup: Please check the record E36L and state if its folding stability dG is at or above 1 kcal/mol.
Found: Condition met

Lookup: Please check the record Y16T and state if its folding stability dG is at or above 1 kcal/mol.
Found: Condition met

Lookup: Please check the record E57C and state if its folding stability dG is at or above 1 kcal/mol.
Found: Condition met

Lookup: Please check the record D46H and state if its folding stability dG is at or above 1 kcal/mol.
Found: Condition not met

Lookup: Please check the record E44Y and state if its folding stability dG is at or above 1 kcal/mol.
Found: Condition met

Lookup: Please check the record D37P and state if its folding stability dG is at or above 1 kcal/mol.
Found: Condition not met

Lookup: Please check the record M62T and state if its folding stability dG is at or above 1 kcal/mol.
Found: Condition not met

Lookup: Please check the record L38Q and state if its folding stability dG is at or above 1 kcal/mol.
Found: Condition not met

Lookup: Please check the record E56G and state if its folding stability dG is at or above 1 kcal/mol.
Found: Condition met

Lookup: Please check the record D37S and state if its folding stability dG is at or above 1 kcal/mol.
Found: Condition met

Lookup: Please check the record D54G and state if its folding stability dG is at or above 1 kcal/mol.
Found: Condition met

Lookup: Please check the record G49L and state if its folding stability dG is at or above 1 kcal/mol.
Found: Condition met

Lookup: Please check the record T52I and state if its folding stability dG is at or above 1 kcal/mol.
Found: Condition met

Lookup: Please check the record M59S and state if its folding stability dG is at or above 1 kcal/mol.
Found: Condition met

Lookup: Please check the record S35G and state if its folding stability dG is at or above 1 kcal/mol.
Found: Condition met

Lookup: Please check the record E12G and state if its folding stability dG is at or above 1 kcal/mol.
Found: Condition met

Lookup: Please check the record D30V and state if its folding stability dG is at or above 1 kcal/mol.
Found: Condition met

Lookup: Please check the record D39S and state if its folding stability dG is at or above 1 kcal/mol.
Found: Condition met

Lookup: Please check the record G15A and state if its folding stability dG is at or above 1 kcal/mol.
Found: Condition not met

Lookup: Please check the record D48F and state if its folding stability dG is at or above 1 kcal/mol.
Found: Condition met

Lookup: Please check the record E44C and state if its folding stability dG is at or above 1 kcal/mol.
Found: Condition met

Lookup: Please check the record E24V and state if its folding stability dG is at or above 1 kcal/mol.
Found: Condition met

Lookup: Please check the record S34L and state if its folding stability dG is at or above 1 kcal/mol.
Found: Condition met

Lookup: Please check the record N14A and state if its folding stability dG is at or above 1 kcal/mol.
Found: Condition met

Lookup: Please check the record G13K and state if its folding stability dG is at or above 1 kcal/mol.
Found: Condition met

Lookup: Please check the record D10W and state if its folding stability dG is at or above 1 kcal/mol.
Found: Condition met

Lookup: Please check the record L33D and state if its folding stability dG is at or above 1 kcal/mol.
Found: Condition not met

Lookup: Please check the record T19P and state if its folding stability dG is at or above 1 kcal/mol.
Found: Condition not met

Lookup: Please check the record D37R and state if its folding stability dG is at or above 1 kcal/mol.
Found: Condition met

Lookup: Please check the record K11L and state if its folding stability dG is at or above 1 kcal/mol.
Found: Condition met

Lookup: Please check the record T32N and state if its folding stability dG is at or above 1 kcal/mol.
Found: Condition met
